MIC, Proteus mirabilis, per-entry values.

Here is how some molecules turned out for MIC.
{"Compound": "CC[C@H](C)[C@H](NC(=O)[C@H](CC(C)C)NC(=O)CNC(=O)[C@H](CCCCN)NC(=O)[C@H](CC(C)C)NC(=O)[C@H](CC(N)=O)NC(=O)[C@@H](N)CC(C)C)C(=O)N[C@@H](CCCCN)C(=O)N[C@@H](CCCCN)C(=O)N[C@H](C(=O)N[C@@H](C)C(=O)N[C@@H](CO)C(=O)N[C@@H](CC(C)C)C(=O)N[C@@H](CC(C)C)C(=O)N[C@@H](CC(N)=O)C(=O)O)C(C)C", "MIC": "≥ 60 µM"}
{"Compound": "CC(C)C[C@H](NC(=O)[C@H](C)N)C(=O)N[C@@H](Cc1ccccc1)C(=O)N[C@@H](CCCCN)C(=O)N[C@H](C(=O)N[C@@H](C)C(=O)N[C@@H](CO)C(=O)N[C@@H](CCCCN)C(=O)N[C@H](C(=O)N[C@@H](CC(C)C)C(=O)N1CCC[C@H]1C(=O)N[C@@H](CO)C(=O)N[C@H](C(=O)O)C(C)C)C(C)C)C(C)C", "MIC": "≥ 147 µM"}
{"Compound": "CC(C)C[C@H](NC(=O)[C@@H](NC(=O)[C@H](CCCCN)NC(=O)[C@H](CC(C)C)NC(=O)[C@H](C)NC(=O)[C@@H](NC(=O)[C@H](CCCCN)NC(=O)[C@H](Cc1ccccc1)NC(=O)[C@H](CC(C)C)NC(=O)[C@H](C)NC(=O)[C@H](CCCCN)NC(=O)[C@H](CC(C)C)NC(=O)[C@@H](N)Cc1ccccc1)C(C)C)C(C)C)C(=O)O", "MIC": "≥ 134 µM"}

Here's the next entry for you.
Inquiry: Report value: MIC, system: Proteus mirabilis, molecule: CC[C@H](C)[C@H](NC(=O)[C@H](CC(C)C)NC(=O)[C@@H]1CCCN1C(=O)[C@H](CC(C)C)NC(=O)[C@H](CCCCN)NC(=O)[C@H](CCCCN)NC(=O)[C@H](CC(C)C)NC(=O)[C@H](CC(C)C)NC(=O)[C@H](C)NC(=O)[C@@H](NC(=O)[C@H](Cc1ccccc1)NC(=O)CN)C(C)C)C(=O)N[C@@H](CC(C)C)C(=O)N[C@@H](CCCCN)C(=O)N[C@@H](Cc1cnc[nH]1)C(=O)N[C@@H](CC(C)C)C(=O)N[C@@H](Cc1cnc[nH]1)C(N)=O
Reply text: 30 µM
